The measurements presented in this section are drawn from patent US9526785B2.

assay: Tigecycline plasma PK and % F after PO enteric-coated capsule in dogs; format: in vivo, Beagle dogs; conditions: female, beagle, dog, plasma, po, 30 mg, Study 2 (SC430); 30 mg Formulated enteric coated capsule (500 mg citric acid, 100 mg LLC), oral, dogs, N=4 excluding animal 5256; mean (% CV); read-out: Tmax (converted)
ASSAY_ENDPOINT: Tmax (h)

| COMPOUND_STRING | U | VALUE_OBSERVED |
| --- | --- | --- |
| CN(C)c1cc(NC(=O)CNC(C)(C)C)c(O)c2c1C[C@H]1C[C@H]3[C@H](N(C)C)C(O)=C(C(N)=O)C(=O)[C@@]3(O)C(O)=C1C2=O | h | 1.58 |

---

Test: Tigecycline plasma PK and % F after PO enteric-coated capsule in dogs
Type: in vivo, Beagle dogs
Conditions: female, beagle, dog, plasma, po, 30 mg, Tigecycline Plasma Concentration, 0.0 hr; PO 30 mg unformulated enteric-coated capsule, SC430; individual dogs
Method: Adult beagle dogs weighing approximately 9 to 15 kg were used in the study. […] Room temperature was set to be maintained between approximately 20±5° C. Relative humidity was monitored but not controlled. […] The unknown concentration in dog plasma samples was determined by interpolation of the peak area ratios of analyte:internal standard versus the ratio of their nominal concentrations into the regression line obtained from calibration standards spiked in pooled dog plasma. […]

| COMPOUND_STRING | concentration at 0 hr |
| --- | --- |
| CN(C)c1cc(NC(=O)CNC(C)(C)C)c(O)c2c1C[C@H]1C[C@H]3[C@H](N(C)C)C(O)=C(C(N)=O)C(=O)[C@@]3(O)C(O)=C1C2=O | 0 ng/mL |

---

assay: Kanamycin and tobramycin plasma PK after IV bolus in dogs; type: in vivo, Beagle dogs; conditions: female, Beagle, dog, plasma, iv, 0.1 mg, single IV bolus 0.10 mg; 40 min; read-out: Plasma Concentration, Mean
ASSAY_ENDPOINT: concentration at 40 min (ng/mL)

| COMPOUND | U | VALUE_OBSERVED |
| --- | --- | --- |
| NC[C@H]1O[C@H](O[C@H]2[C@H](O)[C@@H](O[C@H]3O[C@H](CO)[C@@H](O)[C@H](N)[C@H]3O)[C@H](N)C[C@@H]2N)[C@H](O)[C@@H](O)[C@@H]1O [Kanamycin] | ng/mL | 27.2 |

---

Assay: Tigecycline plasma PK and % F after intraduodenal (ID) injection in anesthetized rats
Format: in vivo, Sprague-Dawley Rats
Conditions: female, Sprague-Dawley, rat, plasma, […], RA869, ID, 400 mM CA/26 mM LLC, […]; read-out: % F, mean
Protocol: Animals weighed approximately 250 g at the time of testing. Rats were fasted overnight (with water available), prior to dosing. Intravenous (IV) doses were administered as a bolus injection into the left carotid […] at a dose volume of 1.6 mL/kg. […] Female rats were maintained in groups of 3 per polycarbonate (or equivalent) shoebox cage with fresh wood chip bedding at 20-22° C. under a 12 hour on/off light:dark cycle. […] Animal weights were determined post-anesthesia induction. […]

| COMPOUND | bioavailability [%] |
| --- | --- |
| CN(C)c1cc(NC(=O)CNC(C)(C)C)c(O)c2c1C[C@H]1C[C@H]3[C@H](N(C)C)C(O)=C(C(N)=O)C(=O)[C@@]3(O)C(O)=C1C2=O [Tigecycline] | 21.6 |
